Provide the reported pIC50 of each item.
- assayed_system: Muscarinic acetylcholine receptor M1 (Homo sapiens, UniProt P11229)
- Sequence (P11229 whole entry): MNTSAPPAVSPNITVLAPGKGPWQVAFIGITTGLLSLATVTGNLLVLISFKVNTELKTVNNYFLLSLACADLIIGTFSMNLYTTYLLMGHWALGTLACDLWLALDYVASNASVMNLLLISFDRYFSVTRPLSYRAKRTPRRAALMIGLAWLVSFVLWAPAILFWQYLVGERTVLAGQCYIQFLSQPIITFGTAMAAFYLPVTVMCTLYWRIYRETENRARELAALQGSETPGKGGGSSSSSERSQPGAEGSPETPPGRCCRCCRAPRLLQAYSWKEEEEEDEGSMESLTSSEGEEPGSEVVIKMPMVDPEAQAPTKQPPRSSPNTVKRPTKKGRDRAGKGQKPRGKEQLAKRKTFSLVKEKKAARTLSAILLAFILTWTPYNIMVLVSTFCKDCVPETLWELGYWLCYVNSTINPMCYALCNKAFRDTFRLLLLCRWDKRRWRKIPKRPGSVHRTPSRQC
- assay_procedure: Ability to displace [3H]N-methylscopolamine from Muscarinic acetylcholine receptor M1 expressed in CHO cells.
- Assay type: cell-based
Please express pIC50 as -log10 of the molar concentration.

Ask: Provide the reported pIC50 (system: Muscarinic acetylcholine receptor M1 (Homo sapiens, UniProt P11229)) for Clc1cc(CO/N=C2\CN3CCC2C3)on1 (stereo not drawn)
Reply: 4.44

Ask: Provide the reported pIC50 (system: Muscarinic acetylcholine receptor M1 (Homo sapiens, UniProt P11229)) for N#Cc1cc(CO/N=C2\CN3CCC2CC3)on1
Reply: 5.06

Ask: Provide the reported pIC50 (system: Muscarinic acetylcholine receptor M1 (Homo sapiens, UniProt P11229)) for Clc1cc(CO/N=C2\CN3CCC2CC3)on1
Reply: 4.86

Ask: Provide the reported pIC50 (system: Muscarinic acetylcholine receptor M1 (Homo sapiens, UniProt P11229)) for O=C1CCCN1CC#CCN1CCCC1 [OXOTREMORINE]
Reply: 4.57

Ask: Provide the reported pIC50 (system: Muscarinic acetylcholine receptor M1 (Homo sapiens, UniProt P11229)) for N#Cc1cc(CO/N=C/C2CN3CCC2C3)on1 (stereo not drawn)
Reply: 3.72

Ask: Provide the reported pIC50 (system: Muscarinic acetylcholine receptor M1 (Homo sapiens, UniProt P11229)) for COc1cc(CO/N=C/C2CN3CCC2C3)on1 (stereo not drawn)
Reply: 4.78

Ask: Provide the reported pIC50 (system: Muscarinic acetylcholine receptor M1 (Homo sapiens, UniProt P11229)) for Clc1cc(CO/N=C/C2CN3CCC2C3)on1 (stereo not drawn)
Reply: 4.83

Ask: Provide the reported pIC50 (system: Muscarinic acetylcholine receptor M1 (Homo sapiens, UniProt P11229)) for Brc1cc(CO/N=C2\CN3CCC2CC3)on1
Reply: 4.94

Ask: Provide the reported pIC50 (system: Muscarinic acetylcholine receptor M1 (Homo sapiens, UniProt P11229)) for COc1cc(CO/N=C2\CN3CCC2C3)on1 (stereo not drawn)
Reply: 4.39

Ask: Provide the reported pIC50 (system: Muscarinic acetylcholine receptor M1 (Homo sapiens, UniProt P11229)) for N#Cc1cc(CO/N=C/C2CN3CCC2CC3)on1 (stereo not drawn)
Reply: 3.88

Ask: Provide the reported pIC50 (system: Muscarinic acetylcholine receptor M1 (Homo sapiens, UniProt P11229)) for Clc1cc(CO/N=C/C2CN3CCC2CC3)on1 (stereo not drawn)
Reply: 4.63

Ask: Provide the reported pIC50 (system: Muscarinic acetylcholine receptor M1 (Homo sapiens, UniProt P11229)) for COc1cc(CO/N=C2\CN3CCC2CC3)on1
Reply: 4.45

Ask: Provide the reported pIC50 (system: Muscarinic acetylcholine receptor M1 (Homo sapiens, UniProt P11229)) for COc1cc(CO/N=C/C2CN3CCC2CC3)on1 (stereo not drawn)
Reply: 4.53

====

Provide the reported pIC50 of each item.
- assayed_system: UniProtKB P11229
- assay_procedure: Ability to displace [3H]oxotremorine from Muscarinic acetylcholine receptor M1 expressed in CHO cells.
- Assay type: cell-based
Please express pIC50 as -log10 of the molar concentration.

Ask: Provide the reported pIC50 (system: UniProtKB P11229) for COc1cc(CO/N=C2\CN3CCC2C3)on1 (configuration not stated)
Reply: 6.88

Ask: Provide the reported pIC50 (system: UniProtKB P11229) for COc1cc(CO/N=C/C2CN3CCC2CC3)on1 (configuration not stated)
Reply: 5.78

Ask: Provide the reported pIC50 (system: UniProtKB P11229) for N#Cc1cc(CO/N=C2\CN3CCC2C3)on1 (configuration not stated)
Reply: 7.09

Ask: Provide the reported pIC50 (system: UniProtKB P11229) for Clc1cc(CO/N=C/C2CN3CCC2C3)on1 (configuration not stated)
Reply: 7.36

Ask: Provide the reported pIC50 (system: UniProtKB P11229) for N#Cc1cc(CO/N=C/C2CN3CCC2CC3)on1 (configuration not stated)
Reply: 6.47

Ask: Provide the reported pIC50 (system: UniProtKB P11229) for O=C1CCCN1CC#CCN1CCCC1
Reply: 8.64

Ask: Provide the reported pIC50 (system: UniProtKB P11229) for Clc1cc(CO/N=C/C2CN3CCC2CC3)on1 (configuration not stated)
Reply: 6.10

Ask: Provide the reported pIC50 (system: UniProtKB P11229) for Brc1cc(CO/N=C/C2CN3CCC2C3)on1 (configuration not stated)
Reply: 6.41

Ask: Provide the reported pIC50 (system: UniProtKB P11229) for Clc1cc(CO/N=C2\CN3CCC2C3)on1 (configuration not stated)
Reply: 7.64

Ask: Provide the reported pIC50 (system: UniProtKB P11229) for Brc1cc(CO/N=C2\CN3CCC2C3)on1 (configuration not stated)
Reply: 7.10

Ask: Provide the reported pIC50 (system: UniProtKB P11229) for Brc1cc(CO/N=C/C2CN3CCC2CC3)on1 (configuration not stated)
Reply: 5.91

Ask: Provide the reported pIC50 (system: UniProtKB P11229) for COc1cc(CO/N=C/C2CN3CCC2C3)on1 (configuration not stated)
Reply: 6.54

Ask: Provide the reported pIC50 (system: UniProtKB P11229) for N#Cc1cc(CO/N=C2\CN3CCC2CC3)on1
Reply: 7.09

Ask: Provide the reported pIC50 (system: UniProtKB P11229) for Clc1cc(CO/N=C2\CN3CCC2CC3)on1
Reply: 7.24

Ask: Provide the reported pIC50 (system: UniProtKB P11229) for COc1cc(CO/N=C2\CN3CCC2CC3)on1
Reply: 6.44

Ask: Provide the reported pIC50 (system: UniProtKB P11229) for Brc1cc(CO/N=C2\CN3CCC2CC3)on1
Reply: 7.14

Ask: Provide the reported pIC50 (system: UniProtKB P11229) for N#Cc1cc(CO/N=C/C2CN3CCC2C3)on1 (configuration not stated)
Reply: 5.73

====

- assayed_system: Muscarinic acetylcholine receptor M1 (Homo sapiens)
- assay_procedure: Ability to displace [3H]N-methylscopolamine from Muscarinic acetylcholine receptor M1 expressed in CHO cells.
- Assay type: cell-based
observed_property: IC50 (µM)
State just the number; it will be interpreted in µM.

Ask: Give the reported value of IC50 for this record: Brc1cc(CO/N=C/C2CN3CCC2CC3)on1 (centres undefined)
Reply: 8.4

Ask: Give the reported value of IC50 for this record: Brc1cc(CO/N=C/C2CN3CCC2C3)on1 (centres undefined)
Reply: 17.7

Ask: Give the reported value of IC50 for this record: Brc1cc(CO/N=C2\CN3CCC2C3)on1 (centres undefined)
Reply: 48.8

Ask: Give the reported value of IC50 for this record: N#Cc1cc(CO/N=C2\CN3CCC2C3)on1 (centres undefined)
Reply: 32.5
